System: IgG Fc fragment (human) (Homo sapiens), P01857-1
Experiment: filter
Settings: pH 6, 41 mM Na+
quantity measured: Ka

input sequence: CCTCTTCTTTTTCTTCTCCTTTTTGGAGAAG [RAD2 (triplex 31mer)]
target of assay: IgG Fc fragment (human) (Homo sapiens), P01857-1
Ka: 5.86 log10 M-1

Check the records and state Ka for CTCTCTCTTTTTCTCTCTCTTTTTGAGAGAG [RAD9]
5.87 log10 M-1

Check the records and state Ka for TGGTTGGTTTTTGGAAGGATTTTTTCCTTCC [RAD3]
6.34 log10 M-1

Check the records and state Ka for CCTCTTCTTTTTCTTCTC [RAD20]
5.96 log10 M-1

Check the records and state Ka for TGGGCCGGTAACGGGTTACCGTAAGGTCCC [RAD10]
5.92 log10 M-1

Check the records and state Ka for CCCTCCCTGGGCTTTTTTTGATTTTTCTTAA [RAD4]
5.26 log10 M-1

Check the records and state Ka for GAGAGAGTTTTTGAGAGAGTTTTTCTCTCTC [RAD7]
5.99 log10 M-1
